- System: MKN-45
- assay text: Growth inhibition of human MKN45 cells after 72 hrs by methylene blue assay
- Format: functional, cell-based
- assay setup: MKN-45, 72 h
# Lookup of reported log10 of IC50 keyed by entry
Form field - Quantity: IC50; Unit: nM; Scale: log10

Completed entries (count: 7):
{"columns": ["smiles entry", "log10 of IC50"],
 "data": [
  ["COc1cc(C(=O)c2ccc3c(O)c(OC)ccc3n2)cc(OC)c1OC", 0.65],
  ["COc1cc(S(=O)(=O)c2ccc3c(N)c(OC)ccc3n2)cc(OC)c1OC", 0.60],
  ["COc1cc(Oc2ccc3c(N)c(OC)ccc3n2)cc(OC)c1OC", 1.79],
  ["COc1cc(C(=O)c2ccc3c(Cl)c(OC)ccc3n2)cc(OC)c1OC", 1.78],
  ["COc1cc(C(=O)c2ccc3c(I)c(OC)ccc3n2)cc(OC)c1OC", 2.91],
  ["COc1cc(C(=O)c2ccc3c(Br)c(OC)ccc3n2)cc(OC)c1OC", 2.22],
  ["COc1cc2c(c(OC)c1OC)-c1ccc(OC)c(=O)cc1[C@@H](NC(C)=O)CC2", 1.28]
]}

Lab note: next compound to report on.
Sure, the documented log10 of IC50 for COc1cc(Sc2ccc3c(N)c(OC)ccc3n2)cc(OC)c1OC is 1.45

All values here come from ChEMBL document CHEMBL1938387.
